Target: TDP-43 (Homo sapiens, UniProt Q13148 1-414)
Sequence (Q13148 whole entry): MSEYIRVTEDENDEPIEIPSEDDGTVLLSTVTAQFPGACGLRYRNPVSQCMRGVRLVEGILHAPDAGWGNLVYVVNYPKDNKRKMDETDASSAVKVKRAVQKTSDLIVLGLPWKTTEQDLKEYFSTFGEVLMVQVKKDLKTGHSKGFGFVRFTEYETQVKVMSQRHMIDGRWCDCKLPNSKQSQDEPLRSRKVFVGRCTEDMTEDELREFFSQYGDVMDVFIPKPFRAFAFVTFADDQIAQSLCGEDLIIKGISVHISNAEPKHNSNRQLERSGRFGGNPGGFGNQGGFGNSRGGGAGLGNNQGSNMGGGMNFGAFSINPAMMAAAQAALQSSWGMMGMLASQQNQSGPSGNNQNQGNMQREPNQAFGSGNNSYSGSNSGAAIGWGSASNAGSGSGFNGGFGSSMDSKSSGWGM
Test: RNA Bind-n-Seq with designed 260-mer pool; 25 mM Tris-HCl, 150 mM KCl, 3 mM MgCl2, BSA (printed 500 mg/mL), 20 units/mL SUPERase IN; pH not stated; 500 nM RNA pool, 1 h, 4 C; TDP-43 5, 50, 500 nM; high values mean tight binding
Details: protein: recombinant; tags: SBP (GST cleaved off with PreScission; pGEX-GST-SBP)
The full ranking holds about 9,900 sequences; the median of “r (bound/input frequency ratio)” is about 0.7, and the highest 2% start at about 6.5. The list comes from a sample in which the highest values are over-represented; it also holds close analogues and randomly drawn sequences.
binding signal values for the binders below.

- BINDER: "ENSMUSG00000061578.1442|Ksr2 (ssRNA) RNA: GGGAGUUCUACAGUCCGACGAUCGCUUCGAUAUCCGCAUGCUAAGGAAGGCAAGUAGGAUGGAUGGAUGAGUGAGUGGAUAGGUAGGUAUAUAAAUGGAUGGAUGGGUGAUGGAUGGGUAAAUGAAUGGAUAGGUAUGUGAAUGAAUGGAUGAUGGAUGAAUGGAUGGGUAGGUGGGUAGAUAGGUAUAUGAAUGAAUGGAUGAAUGGAUGGGUGAAUGGAUGGAUAGGUAUGUGAAUAAAUGGAUGGAUGGAUGGAUUGAUUUGUGAAUGAAUGGAUGAAUGGAUGGGUAGGUGGGUGGAUGCUCUUGCGGUCGCACUAGUGUGGAAUUCUCGGGUGUCAAGG"
  binding signal: "7.5 R (bound/input frequency ratio)"
- BINDER: "ENSMUSG00000058297.242|Spock2 (ssRNA) RNA: GGGAGUUCUACAGUCCGACGAUCGCUUCGAUAUCCGCAUGCUAAGGGGACCACACUGAGCAGCUAGGCCCUGAUGCCAUGCCUCAGCACGCCCUCAGACCUCCAGGCCGGGUGGAAGGGGCUUUUACCCAGAUGUCCUGUGGGGUUUUGUGUGUCUAUUGCUCCCCACUUCCCCCUCUCAAAGGAAAUUUCCUUGAUAUAUUUGAUGAAGAAUUCCUUACCUGGGCCUCUGAUACCCUUUGGUACGCGUACGUGUGUGUGGCGCGUAUACGUGUGUGUGUGUGUGUGUGUGUGUGUGUGUGUGCUCUUGCGGUCGCACUAGUGUGGAAUUCUCGGGUGUCAAGG"
  binding signal: "6.94 R (bound/input frequency ratio)"
- BINDER: "ENSMUSG00000061578.1441|Ksr2 (ssRNA) RNA: GGGAGUUCUACAGUCCGACGAUCGCUUCGAUAUCCGCAUGCUACCAAUCAGGAAGGCAAGUAGGAUGGAUGGAUGAGUGAGUGGAUAGGUAGGUAUAUAAAUGGAUGGAUGGGUGAUGGAUGGGUAAAUGAAUGGAUAGGUAUGUGAAUGAAUGGAUGAUGGAUGAAUGGAUGGGUAGGUGGGUAGAUAGGUAUAUGAAUGAAUGGAUGAAUGGAUGGGUGAAUGGAUGGAUAGGUAUGUGAAUAAAUGGAUGGAUGGAUGGAUUGAUUUGUGAAUGAAUGGAUGAAUGGAUGGGUAGGUGGGCUCUUGCGGUCGCACUAGUGUGGAAUUCUCGGGUGUCAAGG"
  binding signal: "5.22 R (bound/input frequency ratio)"
- BINDER: "ENSMUSG00000061578.750|Ksr2 (ssRNA) RNA: GGGAGUUCUACAGUCCGACGAUCGCUUCGAUAUCCGCAUGCUACAAGUUUGAGUCUCCAUAUGGGCCCUUCCUGUCCUCAUGCCCUGCCUGUCUUCAUUCCACCCAUCCACCCUCCUAAGGAUUGGUCUUGUUCCGAGAGUGAUCCUGGUAACGCCAAGCCUCCCUCUGCCCCUGUGUUGGCUUCUGUGACGGACUACCACACACCAAGAGGUUUUUCACAGUGAAGAUGUAUGCUCUCACCAUCCUACAGAUGCAAAGACCAAACACAAAGUGUCUGCAUGACCUUCCCCCUCUGGAAUUUGCUCUUGCGGUCGCACUAGUGUGGAAUUCUCGGGUGUCAAGG"
  binding signal: "0.725 R (bound/input frequency ratio)"
